Target: c-Kit (antigen of the binding assay of FIG. 9A) (Homo sapiens (Human), UniProt P10721 26-524)
Sequence (P10721 26-524 limits assumed): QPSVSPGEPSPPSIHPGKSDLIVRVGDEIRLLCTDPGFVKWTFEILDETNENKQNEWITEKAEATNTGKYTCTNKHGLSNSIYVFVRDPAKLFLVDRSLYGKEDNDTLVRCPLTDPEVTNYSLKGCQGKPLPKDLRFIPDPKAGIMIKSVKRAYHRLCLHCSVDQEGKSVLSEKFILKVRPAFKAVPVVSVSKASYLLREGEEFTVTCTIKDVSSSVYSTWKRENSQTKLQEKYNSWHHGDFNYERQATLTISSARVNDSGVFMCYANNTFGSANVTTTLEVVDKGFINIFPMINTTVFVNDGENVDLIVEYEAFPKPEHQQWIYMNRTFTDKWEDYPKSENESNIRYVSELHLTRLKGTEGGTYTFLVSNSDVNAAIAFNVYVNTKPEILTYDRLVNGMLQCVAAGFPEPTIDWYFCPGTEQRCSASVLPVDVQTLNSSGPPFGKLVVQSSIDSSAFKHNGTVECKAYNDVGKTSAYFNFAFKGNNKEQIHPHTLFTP
Experiment: plate binding assay on Human c-KIT, A450-A630 (ratio corrected)
Each entry below lists one item and its recorded EC50 (read off the curve) value.

// known answers, use as guide
binder	observed result
bispecific pair with alternative common light chain VL4: MH1 VH / 2.14_1.2 VH / VL4 (bispecific antibody, V domains shown) VH 1: QVQLVQSGAEVKKPGASVKVSCKASGYTFTDYYMNWVRQAPGQGLEWMGRIYPGSGNTYYAQKFQGRVTMTRDTSTSTVYMELSSLRSEDTAVYYCARGVYYYDYWGQGTLVTVSS VH 2: QVQLQESGPGLVKPSQTLSLTCTVSGGSISSGGYYWSWIRQHPGKGLEWIGIIYYSGSTYYNPSLKSRVTISVDTSKNQFSLKLNSVTAADTAVFYCARVAIVTTIPGGMDVWGQGTTVTVSS VL: EIVLTQSPDFQSVTPKEKVTITCRASQGIRTNLAWYQQKPDQSPKLLIKYASQSFSGVPSRFSGSGSGTDFTLTINSLEAEDAATYYCQQYNSYPRTFGQGTKVEIK	~0.06 µg/mL
bispecific pair with alternative common light chain VL3: MH1 VH / 2.14_1 VH / VL3 (bispecific antibody, V domains shown) VH 1: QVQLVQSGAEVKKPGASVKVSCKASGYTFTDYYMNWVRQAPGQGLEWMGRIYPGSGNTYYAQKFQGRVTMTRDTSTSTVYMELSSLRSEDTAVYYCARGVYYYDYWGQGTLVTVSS VH 2: QVQLQESGPGLVKPSQTLSLTCTVSGGSISSGGYYWSWIRQHPGKGLEWIGIIYYSGSTYYNPSLKSRVTISVDTSKNQFSLKLNSVTAADTAVFYCARVAIVTTIPGGMDVWGQGTTVTVSS VL: EIVLTQSPDFQSVTPKEKVTITCRASQGIRTNLAWYQQKPDQSPKLLIKAASSLQSGVPSRFSGSGSGTDFTLTINSLEAEDAATYYCQQYNSYPRTFGQGTKVEIK	~0.1 µg/mL
bispecific pair with alternative common light chain VL1: MH1 VH / 2.7_1 VH / VL1 (bispecific antibody, V domains shown, Format as tested (bispecific or separate IgGs) is not described beyond 'bispecific pairs') VH 1: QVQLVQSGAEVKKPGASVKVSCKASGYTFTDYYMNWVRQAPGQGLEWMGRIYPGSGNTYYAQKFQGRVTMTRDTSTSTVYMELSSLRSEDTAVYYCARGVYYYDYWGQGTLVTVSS VH 2: EVQLVESGPGLVKPSETLSLTCTVSGGSISSSSYYWGWIRQPPGKGLEWIGSMYYSGSTYHNPSLKSRVIISVDTSKNQFSLKLSSVTAADTAVYYCARHYITVAGIFDYWGQGTLVTVSS VL: QSVLTQPPSASGTPGQRATISCRASQGIRTNLAWYQQVPGTAPKLLIYAASSLQSGVPSRFSGSKSGTSASLAISGLQSEDEADYYCQQYNSYPRTFGGGTKLTVL	~0.06 µg/mL
F6/MH1 common light chain bispecific (anti-CD203c F6 x anti-c-Kit MH1) (bispecific antibody, V domains shown, Knob-in-hole IgG1null bispecific with human Ckappa; also called F6/MH1 bispecific molecule) VH 1: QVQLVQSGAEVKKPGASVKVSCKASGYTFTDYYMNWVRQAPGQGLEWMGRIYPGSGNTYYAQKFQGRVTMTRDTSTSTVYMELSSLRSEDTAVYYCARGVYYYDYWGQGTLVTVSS VH 2: EVQLVQSGAEVKKPGESLKISCKGSGYRFASNWIGWVRQMPGKGLEWMGEIYPGDSNTRYSPSFQGQVTISADKSISTAYLQWSSLKASDTAMYYCARKDYYYYAMDVWGQGTTVTVSS VL: DIQMTQSPSSLSASVGDRVTITCRASQGIRTNLAWFQQKPGKAPKSLIYAASSLQSGVPSRFSGSGSGTDFTLTISSLQPEDFATYYCQQYNSYPRTFGGGTKVEIK	~0.5 µg/mL

Let us examine a further case.
For the binder bispecific pair with alternative common light chain VL2: MH1 VH / 2.7_1.2 VH / VL2 (bispecific antibody, V domains shown) VH 1: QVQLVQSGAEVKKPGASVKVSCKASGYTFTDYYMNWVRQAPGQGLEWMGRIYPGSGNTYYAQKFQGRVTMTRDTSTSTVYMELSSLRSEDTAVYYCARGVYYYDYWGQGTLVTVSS VH 2: EVQLVESGPGLVKPSETLSLTCTVSGGSISSSSYYWGWIRQPPGKGLEWIGSMYYSGSTYHNPSLKSRVIISVDTSKNQFSLKLSSVTAADTAVYYCARHYITVAGIFDYWGQGTLVTVSS VL: QSVLTQPPSASGTPGQRATISCRASQGIRTNLAWYQQVPGTAPKLLIYSNNQRPSGVPDRFSGSKSGTSASLAISGLQSEDEADYYCQQYNSYPRTFGGGTKLTVL , what EC50 (read off the curve) is on record? ~0.06 µg/mL
